Assign Test A disease control rating to each entry below.
Tested on: Puccinia recondita f. sp. tritici
Experiment: Test A: wheat leaf rust, preventive spray on wheat seedlings, visual disease rating
Type: in vivo
Details: 250 ppm test suspension (*)
Marks after values point to notes of the source that are not given here.

stdin: Identify measured Test A disease control rating corresponding to CC(=NOC(C)C)c1c(C)nn(C)c1Nc1ccc(F)cc1Cl
stdout: 32* %

stdin: Identify measured Test A disease control rating corresponding to C=C(C)c1c(C)nn(C)c1Nc1c(F)cc([N+](=O)[O-])cc1F
stdout: 55* %

stdin: Identify measured Test A disease control rating corresponding to CC(=CC(C)C)c1c(C)nn(C)c1Nc1ccc(F)cc1Cl
stdout: 55* %

stdin: Identify measured Test A disease control rating corresponding to C=C(C)c1c(C)nn(C)c1Oc1ccc(F)cc1Cl
stdout: 15* %

stdin: Identify measured Test A disease control rating corresponding to Cc1nn(C)c(Nc2ccc(F)cc2Cl)c1C1=CCC(C#N)CC1 (stereo not shown)
stdout: 67* %

stdin: Identify measured Test A disease control rating corresponding to CC(=O)c1c(C)nn(C)c1Nc1ccc(F)cc1Cl
stdout: 19* %

stdin: Identify measured Test A disease control rating corresponding to Cc1nn(C)c(Oc2ccc(F)cc2Cl)c1C(C)O (stereo not shown)
stdout: 0* %

stdin: Identify measured Test A disease control rating corresponding to Cc1nn(C)c(Nc2ccc(F)cc2Cl)c1C1=CCOCC1
stdout: 0* %

stdin: Identify measured Test A disease control rating corresponding to Cc1nn(C)c(Oc2ccc(F)cc2Cl)c1C1OCCCO1
stdout: 52* %

stdin: Identify measured Test A disease control rating corresponding to Cc1nn(C)c(Nc2ccc(F)cc2F)c1C1CCOCC1
stdout: 41* %

* * *

System: Puccinia recondita f. sp. tritici
Assay: Test A: wheat leaf rust, preventive spray on wheat seedlings, visual disease rating
Assay type: in vivo
Conditions: 250 ppm test suspension (*)
Marks after values point to notes of the source that are not given here.
OBSERVABLE: Test A disease control rating

stdin: Identify measured Test A disease control rating corresponding to CCON=C(C)c1c(C)nn(C)c1Nc1ccc(F)cc1Cl [Compound 26]
stdout: 0* %

stdin: Identify measured Test A disease control rating corresponding to Cc1nn(C)c(Oc2ccc(F)cc2Cl)c1C1OCC(C)(C)CO1 [Compound 38]
stdout: 52* %

stdin: Identify measured Test A disease control rating corresponding to Cc1nn(C)c(C(O)c2ccc(F)cc2F)c1C1CCCCC1 (centres unmarked) [Compound 12]
stdout: 94* %

stdin: Identify measured Test A disease control rating corresponding to Cc1nn(C)c(Nc2ccc(F)cc2F)c1C1CCC(C)(C)CC1 [Compound 19]
stdout: 0* %

stdin: Identify measured Test A disease control rating corresponding to Cc1nn(C)c(Nc2ccc(F)cc2)c1C1CCOCC1 [Compound 57]
stdout: 0* %

* * *

System: Puccinia recondita f. sp. tritici
Experiment: Test A: wheat leaf rust, preventive spray on wheat seedlings, visual disease rating
Type: in vivo
Conditions: 250 ppm test suspension (*)
Marks after values point to notes of the source that are not given here.
OBSERVABLE: Test A disease control rating

stdin: Identify measured Test A disease control rating corresponding to Cc1nn(C)c(Nc2ccc(F)cc2Cl)c1C1=CCC(C)(C)CC1
stdout: 19* %

stdin: Identify measured Test A disease control rating corresponding to Cn1nc(Br)c(C2OCCCO2)c1C(O)c1ccc(F)cc1Cl (stereo not shown)
stdout: 0* %

stdin: Identify measured Test A disease control rating corresponding to Cc1nn(C)c(Nc2ccc(F)cc2F)c1C1CCC(C)CC1 (stereo not shown)
stdout: 53* %

stdin: Identify measured Test A disease control rating corresponding to CC1=NOC(c2c(C)nn(C)c2Oc2ccc(F)cc2Cl)C1 (stereo not shown)
stdout: 30* %

stdin: Identify measured Test A disease control rating corresponding to Cc1nn(C)c(Oc2ccc(F)cc2Cl)c1C1=NOC(C)(C)C1
stdout: 0* %

stdin: Identify measured Test A disease control rating corresponding to Cc1nn(C)c(Nc2ccc(F)cc2F)c1C1=CCC(C#N)CC1 (stereo not shown)
stdout: 19* %

stdin: Identify measured Test A disease control rating corresponding to CCC(OC)c1c(C)nn(C)c1Oc1c(F)cccc1F (stereo not shown)
stdout: 99* %

stdin: Identify measured Test A disease control rating corresponding to CC(=NO)c1c(C)nn(C)c1Nc1ccc(F)cc1Cl
stdout: 28* %

stdin: Identify measured Test A disease control rating corresponding to Cc1nn(C)c(Nc2ccc(F)cc2)c1C1CCC(C)(C)CC1
stdout: 67* %

stdin: Identify measured Test A disease control rating corresponding to Cc1nn(C)c(Nc2ccc(F)cc2F)c1C1=CCOCC1
stdout: 0* %
